# Test system: MDA-MB-231 breast
# Run Description: NCI tumour cell line growth inhibition, 48 h
Attribute: TGI

Example entries begin here.
Inquiry: Lab note: need TGI with MDA-MB-231 breast for entry `O=S(=O)(/N=C(\NO)Nc1ccc(Cl)cc1)c1ccccc1` , please look it up.
Reply text: > 100 µM

Inquiry: Lab note: need TGI with MDA-MB-231 breast for entry `C[C@@H]1COCCN1c1cc(C2([S@@](C)(=N)=O)CC2)nc(-c2ccnc3[nH]ccc23)n1` , please look it up.
Reply text: > 100 µM

New cases:
Inquiry: Lab note: need TGI with MDA-MB-231 breast for entry CNC(=O)OC(COC)CN1CCN(c2ccccc2C)CC1 (stereo not given) , please look it up.
Reply text: > 10 µM

Inquiry: Lab note: need TGI with MDA-MB-231 breast for entry `O=C(NNS(=O)(=O)c1ccccc1)c1cccnc1` , please look it up.
Reply text: > 100 µM

Inquiry: Lab note: need TGI with MDA-MB-231 breast for entry O=C(c1ccccc1)n1c(-c2ccccc2)cs/c1=N\S(=O)(=O)c1ccc(N2N=C3c4ccccc4CC3C2c2cccs2)cc1 (stereo not given) , please look it up.
Reply text: > 100 µM
